# System: SC27B
# measurement-protocol: qHTS profiling for inhibitors of Plasmodium falciparum proliferation (AID 504749); also: nearly all actives have a fitted effect of over 60% in size
# applied-conditions: P. falciparum in erythrocytes, SYBR Green DNA, 72 h; series mostly up to 28.7 µM
Inconclusive results are not listed. Calls of active or inactive are those of the source. Calls follow the shape of the dose curve; as a rule, active = well fitted inhibition curve with a large enough effect; inconclusive = small, poorly fitted or top-dose-only effect; inactive = flat fitted curve, though single readings scatter.
Can you answer with just one of these options? yes (active), no (inactive)

Data request: How did this test come out for "OCCN1CCN(CCCN2c3ccccc3C=Cc3ccccc32)CC1" ?
Data returned: yes

Data request: Similarly, "C[n+]1cc2c3c(ccc2c2ccc4cc5c(cc4c21)OCO5)OCO3" ?
Data returned: no

Data request: Similarly, "COc1ccc([C@@H]2Sc3ccccc3N(CCN(C)C)C(=O)[C@@H]2OC(C)=O)cc1" ?
Data returned: no

Data request: Similarly, "COc1cc2c(cc1OC)-c1cc(=Nc3c(C)cc(C)cc3C)n(C)c(=O)n1CC2" ?
Data returned: yes

Data request: Similarly, "CCOC(=O)c1cnc2c(cnn2CC)c1NN=C(C)C" ?
Data returned: no

Data request: Similarly, "O=C(O)CP(=O)(O)O" ?
Data returned: no

Data request: Similarly, "CCCCNC(=O)NS(=O)(=O)c1ccc(C)cc1" ?
Data returned: no

---

# measurement-protocol: NCATS anti-infectives library activity on HEK293 viability as a counter-qHTS vs the C. elegans viability qHTS (AID 1745854);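 also: HEK293 cells exposed to compounds for 24 hr before the viability read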
# applied-conditions: HEK293 viability counter-screen; series mostly up to 41.8 µM
Inconclusive results are not listed. Calls of active or inactive are those of the source. Calls come from the whole dose curve; as a rule, active = well fitted cell-killing curve with a large enough effect; inconclusive = small, poorly fitted or top-dose-only effect; inactive = flat fitted curve, though single readings scatter.
measure-name: outcome

compound	value-measured
Nc1nc(N)c2nc(-c3ccccc3)c(N)nc2n1	inactive
C[C@H](CS)C(=O)N1CCC[C@H]1C(=O)O	inactive
C=CCc1ccccc1OCC(O)CNC(C)C (centres undefined)	inactive
OCCN1CCN(CCCN2c3ccccc3C=Cc3ccccc32)CC1	inactive

---

# Tested on: CP315
# measurement-protocol: qHTS profiling for inhibitors of Plasmodium falciparum proliferation (AID 504749); also: nearly all actives have a fitted effect of over 60% in size
# applied-conditions: P. falciparum in erythrocytes, SYBR Green DNA, 72 h; series mostly up to 28.7 µM
Records with an inconclusive call do not appear. The source made the active and inactive calls. The call rests on the fitted dose curve; in most records, active means well fitted inhibition curve with a large enough effect; inconclusive means small, poorly fitted or top-dose-only effect; inactive means flat fitted curve, though single readings scatter.
Can you answer with just one of these options? active, inactive

Data request: How did this test come out for "NC(=O)c1ncn([C@@H]2O[C@H](CO)[C@@H](O)[C@H]2O)c1O" ?
Data returned: inactive

Data request: Similarly, "CCCOc1ccccc1-c1nc2n[nH]nc2c(=O)[nH]1" ?
Data returned: inactive

Data request: Similarly, "CC(C)[N+](C)(CCOC(=O)C1c2ccccc2Oc2ccccc21)C(C)C" ?
Data returned: inactive

Data request: Similarly, CCOC(=O)C1=C(C)NC(C)=C(C(=O)OC)C1c1cccc(Cl)c1Cl (configuration not stated) ?
Data returned: inactive

Data request: Similarly, "CCN(CC)CC(=O)Nc1c(C)cccc1C" ?
Data returned: inactive

Data request: Similarly, "CN1CCN(C2=Nc3ccccc3Oc3ccc(Cl)cc32)CC1" ?
Data returned: inactive

Data request: Similarly, "CC(=O)[C@]1(O)Cc2c(O)c3c(c(O)c2[C@@H](O[C@H]2C[C@H](N)[C@H](O)[C@H](C)O2)C1)C(=O)c1ccccc1C3=O" ?
Data returned: active

Data request: Similarly, CC(C(=O)O)c1ccc(CC2CCCC2=O)cc1 (configuration not stated) ?
Data returned: inactive

Data request: Similarly, "CCC(=O)c1ccc2c(c1)N(CCCN(C)C)c1ccccc1S2" ?
Data returned: inactive

Data request: Similarly, "CN(C)CC/C=C1\c2ccccc2COc2ccccc21" ?
Data returned: inactive

Data request: Similarly, "O=C(O)CN(CCN(CC(=O)O)CC(=O)O)CCN(CC(=O)O)CC(=O)O" ?
Data returned: inactive

Data request: Similarly, "CN(C)C(=O)Oc1cccc([N+](C)(C)C)c1" ?
Data returned: inactive

Data request: Similarly, "FC(F)(F)c1ccccc1-n1ccnc1" ?
Data returned: inactive

Data request: Similarly, CNCCC(Oc1ccccc1OC)c1ccccc1 (configuration not stated) ?
Data returned: inactive

Data request: Similarly, "CC(=O)OCC1=C(C(=O)O)N2C(=O)[C@@H](NC(=O)Cc3cccs3)[C@H]2SC1" ?
Data returned: inactive

Data request: Similarly, "CCN1CCc2nc(N)oc2CC1" ?
Data returned: inactive

Data request: Similarly, "CC(=O)Nc1nnc(S(N)(=O)=O)s1" ?
Data returned: inactive

Data request: Similarly, CCOC(=O)C1=C(C)NC(C)=C(C(=O)OC)C1c1cccc([N+](=O)[O-])c1 (configuration not stated) ?
Data returned: inactive

Data request: Similarly, "C[C@]12CCC(=O)C=C1CC[C@@H]1[C@@H]2CC[C@@]2(C)[C@H]1CC[C@]2(O)C(=O)CO" ?
Data returned: inactive

Data request: Similarly, "COC(=O)[C@H]1[C@H]2C[C@@H]3c4[nH]c5cc(OC)ccc5c4CCN3C[C@H]2C[C@@H](OC(=O)c2cc(OC)c(OC)c(OC)c2)[C@@H]1OC" ?
Data returned: active

Data request: Similarly, "O=C(CCNNC(=O)c1ccncc1)NCc1ccccc1" ?
Data returned: inactive

Data request: Similarly, "Cc1scc2c1N(C(=O)CN1CCN(C)CC1)c1ccccc1NC2=O" ?
Data returned: inactive
